The measurements presented in this section are drawn from patent US20240247080A1.

target-of-assay: hGLP1R (Homo sapiens, UniProt P43220)
Construct: expressed in transfected cells; host or cells: HEK-293 cells carrying a CRE-luciferase reporter gene
Sequence (P43220 24-463): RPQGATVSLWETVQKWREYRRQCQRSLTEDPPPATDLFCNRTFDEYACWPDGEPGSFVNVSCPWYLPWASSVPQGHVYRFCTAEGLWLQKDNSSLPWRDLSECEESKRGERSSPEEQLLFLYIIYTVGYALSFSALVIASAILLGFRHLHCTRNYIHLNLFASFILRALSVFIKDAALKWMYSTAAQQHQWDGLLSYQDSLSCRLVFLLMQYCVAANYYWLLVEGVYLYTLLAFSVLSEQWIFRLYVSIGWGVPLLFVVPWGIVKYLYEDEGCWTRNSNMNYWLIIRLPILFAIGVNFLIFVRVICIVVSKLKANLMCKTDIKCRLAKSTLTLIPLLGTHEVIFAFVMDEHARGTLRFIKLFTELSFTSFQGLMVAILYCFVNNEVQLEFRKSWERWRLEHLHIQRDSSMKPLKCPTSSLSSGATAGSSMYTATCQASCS
test-name: hGLP1R CreLuc reporter gene assay in 0.5% and 100% plasma
Format: cell-based
run-parameters: CreLuc reporter gene assay, 0.5% human plasma; read-out: hGLP1R 0.5% hP
Starred links: 1 amine or outer side, 2 acyl side, 3 side chain; linkers in the order of their positions; H or OH if unused. Non-standard residues stand in square brackets, D forms with d. Groups on a side chain read outwards from the residue. *: point of attachment. C20 diacid = O=C(O)CCCCCCCCCCCCCCCCCCC(=O)*; C18 diacid = O=C(O)CCCCCCCCCCCCCCCCC(=O)*; γGlu = O=C(O)[C@H](CCC(=O)[*:2])N[*:1]; εLys = N[C@@H](CCCCN[*:1])C(=O)[*:2]; Aib = CC(C)(N)C(=O)O
Binary call on EC50 with cut-off 0.2 nM: strictly below means Criterion met, and equality or higher means Criterion not met.

Worked examples follow.
substance	group-label
H-Y[Aib]EGTFTSDYSI[Aib]LEKQAQ[Aib]AFVEWLIK([εLys-γGlu-γGlu-γGlu-γGlu-γGlu-γGlu-C20 diacid])GGPSEYESLRHYYNWLTRQRY-NH2 [Compound 93]	Criterion not met
H-Y[Aib]EGTFTSDYSI[Aib]LEKQAQ[Aib]AFVEWLIK([εLys-γGlu-γGlu-γGlu-γGlu-γGlu-γGlu-γGlu-C20 diacid])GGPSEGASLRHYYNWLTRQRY-NH2 [Compound 288]	Criterion met
H-Y[Aib]EGTFTSDYSI[Aib]LEAQAQ[Aib]AFVEWLIK([εLys-γGlu-γGlu-γGlu-γGlu-γGlu-γGlu-C20 diacid])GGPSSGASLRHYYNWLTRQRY-NH2 [Compound 102]	Criterion not met
H-Y[Aib]EGTFTSDYSI[Aib]LEDQAQ[Aib]AFVEWLIK([εLys-γGlu-γGlu-γGlu-γGlu-γGlu-γGlu-C20 diacid])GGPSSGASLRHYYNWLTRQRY-NH2 [Compound 90]	Criterion not met

Moving on to another substance below.
Exercise: Please state whether EC50 is below 0.2 nM for H-Y[Aib]EGTFTSDYSI[Aib]LEKQAQ[Aib]AFVEWLIK([γGlu-γGlu-γGlu-γGlu-γGlu-C18 diacid])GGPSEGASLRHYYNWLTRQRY-NH2 [Compound 292]
Solution: Criterion met

###

Recorded measurements of EC50, one per entry
target-of-assay: hNPY2R (Homo sapiens)
Construct: expressed in transfected cells; host or cells: HEK-293 cells carrying a CRE-luciferase reporter gene
Sequence (P49146 whole entry): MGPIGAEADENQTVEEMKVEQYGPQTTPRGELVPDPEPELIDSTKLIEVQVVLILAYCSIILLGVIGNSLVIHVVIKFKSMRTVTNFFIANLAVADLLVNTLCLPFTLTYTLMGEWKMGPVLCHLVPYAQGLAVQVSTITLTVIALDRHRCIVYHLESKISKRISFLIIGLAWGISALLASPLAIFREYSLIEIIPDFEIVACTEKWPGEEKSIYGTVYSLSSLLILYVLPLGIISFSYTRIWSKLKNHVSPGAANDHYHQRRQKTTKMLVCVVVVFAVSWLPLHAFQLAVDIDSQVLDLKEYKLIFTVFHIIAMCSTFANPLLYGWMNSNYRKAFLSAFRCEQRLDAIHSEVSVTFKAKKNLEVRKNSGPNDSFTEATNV
test-name: hNPY2R CreLuc reporter gene assay in 0.5% and 100% plasma
Format: cell-based
run-parameters: CreLuc reporter gene assay, 0.5% human plasma; read-out: hNPY2R 0.5% hP
Starred links: 1 amine or outer side, 2 acyl side, 3 side chain; linkers in the order of their positions; H or OH if unused. Non-standard residues stand in square brackets, D forms with d. Groups on a side chain read outwards from the residue. *: point of attachment. C20 diacid = O=C(O)CCCCCCCCCCCCCCCCCCC(=O)*; C18 diacid = O=C(O)CCCCCCCCCCCCCCCCC(=O)*; γGlu = O=C(O)[C@H](CCC(=O)[*:2])N[*:1]; εLys = N[C@@H](CCCCN[*:1])C(=O)[*:2]; AEEA = NCCOCCOCC(=O)O; Aib = CC(C)(N)C(=O)O; Ahx = NCCCCCC(=O)O
Hi! Could you send only the number? It should be in µM, unit omitted.

Record excerpt, results attached:
substance	measured-parameter	result
H-Y[Aib]EGTFTSDYSI[Aib]LEKQAQ[Aib]AFVEWLIK([εLys-γGlu-γGlu-γGlu-γGlu-γGlu-γGlu-C20 diacid])GGPSYGASLRHYYNWLTRQRY-NH2 [Compound 232]	EC50	0.0153
H-Y[Aib]EGTFTSDYSI[Aib]LEKQAQ[Aib]AFVQWLIK([εLys-γGlu-γGlu-γGlu-γGlu-γGlu-γGlu-C20 diacid])GGPSEYVSLRHYYNWLTRQRY-NH2 [Compound 78]	EC50	0.0129
H-Y[Aib]EGTFTSDYSI[Aib]LEKQAQ[Aib]EFVQWLIK([AEEA-AEEA-γGlu-γGlu-γGlu-γGlu-γGlu-C20 diacid])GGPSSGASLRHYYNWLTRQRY-NH2 [Compound 36]	EC50	0.00803
H-Y[Aib]EGTFTSDYSI[Aib]LEKQAQ[Aib]AFVEWLIK([εLys-γGlu-γGlu-γGlu-γGlu-γGlu-γGlu-C20 diacid])GGPSYYVSLRHYYNWLTRQRY-NH2 [Compound 80]	EC50	0.0128
H-Y[Aib]EGTFTSDYSI[Aib]LEKQAQ[Aib]AFVQWLIK([εLys-γGlu-γGlu-γGlu-γGlu-γGlu-C20 diacid])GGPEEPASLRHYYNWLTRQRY-NH2 [Compound 67]	EC50	0.0137
H-Y[Aib]EGTFTSDYSI[Aib]LEKQAQ[Aib]AFVQWLIK([AEEA-AEEA-Glu-Glu-Glu-C18 diacid])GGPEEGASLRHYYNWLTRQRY-NH2 [Compound 188]	EC50	0.0169

Exercise: # get_value(readout= EC50, system= hNPY2R (Homo sapiens)) for H-Y[Aib]EGTFTSDYSI[Aib]LEKQAQ[Aib]AFVQWLIK([εLys-γGlu-γGlu-γGlu-γGlu-γGlu-C20 diacid])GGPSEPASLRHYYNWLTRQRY-NH2 [Compound 169]
Solution: 0.0103

Exercise: Entry to check: H-Y[Aib]EGTFTSDYSI[Aib]LEKQAQ[Aib]AFVEWLIK([Ahx-γGlu-γGlu-γGlu-γGlu-γGlu-C18 diacid])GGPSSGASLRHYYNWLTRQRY-NH2 [Compound 260]
Solution: 0.0264

Exercise: Entry to check: H-Y[Aib]EGTFTSDYSI[Aib]LEKQAQ[Aib]AFVEWLIK([εLys-γGlu-γGlu-γGlu-γGlu-γGlu-γGlu-C20 diacid])GGPSSGLSLRHYYNWLTRQRY-NH2 [Compound 107]
Solution: 0.0167
